Cited source for all entries: paper PMC11944884

system: Hela229, SGC7901, PC-3, BEL7402, and MCF-7/ADR; test: Cytotoxicity CCK-8 assay, small panel of human cancer cell lines (summary statements); format: cell-based; conditions: over the panel Hela229, SGC7901, PC-3, BEL7402, MCF-7/ADR, read-out: IC50
Recorded metric: IC50

COc1cccc2c1C(=O)c1c(O)c3c(c(O)c1C2=O)C[C@@](O)(C(=O)CO)C[C@@H]3O[C@H]1C[C@H](N)[C@H](O)[C@H](C)O1 [Doxorubicin, reference compound] : 0.75 to 35.2 µM

====

This section presents molecules with their documented IC50 values.
tested on: influenza virus A/H3N2; test: microbe, parasite or virus in culture; assay type: cell-based, influenza virus A (H3N2 strain); details: Influenza A virus, H3N2, MDCK
Recorded metric: IC50 (µM)

CC(C)[C@@H](C)/C=C/[C@@H](C)[C@H]1CC[C@H]2C3=C[C@@H](O)[C@@]4(O)C[C@@H](O)CC[C@]4(C)[C@H]3CC[C@]12C [Compound 22, cerevisterol] : 9.6
CC(C)[C@@H](C)/C=C/[C@@H](C)[C@H]1CC[C@H]2C3=C(CC[C@]12C)[C@@]1(C)CC[C@H](O)C[C@@]12O[C@H]2[C@H]3O [Compound 26] : 4
